STUDY SYSTEM: Cloned Human Dopamine D3 Receptors (Homo sapiens)
Construct: expressed in transfected cells; membrane homogenate
Sequence (P35462 whole entry): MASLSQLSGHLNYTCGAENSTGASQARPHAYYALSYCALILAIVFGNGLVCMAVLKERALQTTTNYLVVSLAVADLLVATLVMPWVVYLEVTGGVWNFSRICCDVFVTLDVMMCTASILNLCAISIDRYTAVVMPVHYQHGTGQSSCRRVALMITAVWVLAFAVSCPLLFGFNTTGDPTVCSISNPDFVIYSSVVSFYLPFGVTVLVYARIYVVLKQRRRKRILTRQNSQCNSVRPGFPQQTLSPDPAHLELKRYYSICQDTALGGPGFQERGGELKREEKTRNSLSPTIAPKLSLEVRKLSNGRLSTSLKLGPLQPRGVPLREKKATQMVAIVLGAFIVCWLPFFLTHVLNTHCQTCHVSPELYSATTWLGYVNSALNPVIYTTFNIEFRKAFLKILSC
ASSAY INFO: [N-Methyl-3H]Spiroperidol binding to cloned human dopamine D3 receptors
CONDITION INFO: read-out: D3 Ki
pKi: −log10 of the molar value.
Overview of reported pKi across a group of molecules:
MEASURED ATTRIBUTE: pKi

| MOLECULE | STUDY SYSTEM | VALUE MEASURED |
| --- | --- | --- |
| O=C(NCCCN1CCCCC1)[C@@H]1C[C@H]1CN1CCC(c2nn(CC(F)(F)F)c3ccsc23)CC1 [A002328969] | Cloned Human Dopamine D3 Receptors (Homo sapiens) | 6.86 |
| COc1ccc2[nH]cc(CCNC(=O)[C@@H]3C[C@H]3CN3CCC(c4noc5ccsc45)CC3)c2c1 [compound 831275] | Cloned Human Dopamine D3 Receptors (Homo sapiens) | 8.29 |
| O=C([C@@H]1C[C@H]1CN1CCC(c2noc3ccsc23)CC1)N1CCOCC1 [compound 829461] | Cloned Human Dopamine D3 Receptors (Homo sapiens) | 6.51 |
| O=C(C1CC1CN1CCC(c2noc3ccsc23)CC1)N1CCN(CCc2ccccn2)CC1 (stereo not drawn) [compound 832001] | Cloned Human Dopamine D3 Receptors (Homo sapiens) | 6.80 |
| O=C(NCCCc1ccccc1)[C@@H]1C[C@H]1CN1CCN(c2noc3ccsc23)CC1 [compound 831494] | Cloned Human Dopamine D3 Receptors (Homo sapiens) | 7.55 |
| O=C(NCCCN1CCOCC1)[C@@H]1C[C@H]1CN1CCC(c2noc3ccsc23)CC1 [compound 831046] | Cloned Human Dopamine D3 Receptors (Homo sapiens) | 7.81 |
| O=C(NC1CCC(O)CC1)C1CC1CN1CCN(c2noc3ccsc23)CC1 (stereo not drawn) [compound 831955] | Cloned Human Dopamine D3 Receptors (Homo sapiens) | 7.33 |
| O=C(NC1CCN(Cc2ccc(F)c(F)c2)CC1)[C@@H]1C[C@H]1CN1CCN(c2nn(-c3ccc(OC(F)(F)F)cc3)c3ccsc23)CC1 [A002437083] | Cloned Human Dopamine D3 Receptors (Homo sapiens) | 7.96 |
| CC(C)(C)OC(=O)N1CCC(CNC(=O)[C@@H]2C[C@H]2CN2CCC(c3noc4c(C(F)(F)F)cccc34)CC2)CC1 [A002439261] | Cloned Human Dopamine D3 Receptors (Homo sapiens) | 7.26 |
| O=C(NCCCn1ccnc1)[C@@H]1C[C@H]1CN1CCN(c2noc3ccsc23)CC1 [compound 831493] | Cloned Human Dopamine D3 Receptors (Homo sapiens) | 8.31 |
| CC1CCC(NC(=O)C2CC2CN2CCC(c3noc4c(C(F)(F)F)cccc34)CC2)CC1 (stereo not drawn) [compound 832203] | Cloned Human Dopamine D3 Receptors (Homo sapiens) | 8.32 |
| Cc1nc(N)sc1CCNC(=O)C1CC1CN1CCC(c2noc3ccsc23)CC1 (stereo not drawn) [compound 832045] | Cloned Human Dopamine D3 Receptors (Homo sapiens) | 7.66 |
| O=C(NCCCn1cccn1)[C@@H]1C[C@H]1CN1CCC(c2noc3ccsc23)CC1 [compound 831273] | Cloned Human Dopamine D3 Receptors (Homo sapiens) | 7.16 |
| COc1cccc2c(C3CCN(C[C@@H]4C[C@H]4C(=O)N[C@H]4CC[C@H](C)CC4)CC3)nn(C)c12 [compound 834054] | Cloned Human Dopamine D3 Receptors (Homo sapiens) | 7.86 |
| COc1ccc2c(CCNC(=O)[C@@H]3C[C@H]3CN3CCC(c4noc5ccsc45)CC3)c[nH]c2c1 [compound 831276] | Cloned Human Dopamine D3 Receptors (Homo sapiens) | 8.41 |
